# PROTOCOL DESCRIPTION: LAP4-GFP expression modulators in yeast, confirmation, cell-based, cherry picks, flow cytometry, mother/daughter gates (AID 2271);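 also: ratio of sample to DMSO plate mean so 100% equals DMSO level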
# MEASUREMENT SETUP: S. cerevisiae LAP4-GFP strain, 3 h, at 10 µM, active compounds read high, 100 means same as DMSO control
PARAMETER MEASURED: GFP response relative to DMSO (%)
Numbers only, in %.

| COMPOUND | PARAMETER MEASURED | REPORTED RESULT |
| --- | --- | --- |
| COc1ccc(-c2nnc(NC(=O)c3ccc([N+](=O)[O-])o3)o2)c(OC)c1 | GFP response relative to DMSO | 95.4 |
| Cc1ccc(NCN2C(=O)C3C4C=CC(C4)C3C2=O)cc1 (stereo unspecified) | GFP response relative to DMSO | 95.3 |
| CC(C)C(=O)NC(c1cccs1)c1cc([N+](=O)[O-])c2cccnc2c1O (stereo unspecified) | GFP response relative to DMSO | 101 |

Please give GFP response relative to DMSO for each item listed below.
1. O=C(/C=C/c1ccc(-c2ccccc2[N+](=O)[O-])o1)c1ccc(Br)cc1
2. COc1ccccc1CN1C(=O)c2cccc3cccc(c23)C1=O

1. 121
2. 91.9
